# experiment-description: RP, Waters ACQUITY UPLC HSS T3, 150 × 2.1 mm, 1.8 µm; A: water + 0.1% formic acid; B: acetonitrile + 0.1% formic acid; gradient (min/%B) 0/5 1/5 16/95 18/95
# test-parameters: stereoisomer not certain
assay-metric: LC retention time (min)

[a] O=C(O)CCCCCC(=O)O
[b] O=Cc1c[nH]c2cccc(O)c12
Request: Field: lower LC retention time | Options: a / b Lab note: record the label of whichever item you select.
Result: a
(a: 3.47 min, b: 5.1 min)

* * *

# experiment-description: RP, Waters ACQUITY UPLC HSS T3, 100 × 1 mm, 1.8 µm; A: water + 0.1% formic acid, pH 3; B: acetonitrile + 0.1% formic acid, pH 3; gradient (min/%B) 0/5 1/5 16/95 18/95 20/5
# test-parameters: stereoisomer not certain
assay-metric: LC retention time (min)

Worked examples follow.
CCC(C)C(NC(=O)C(N)Cc1ccc(O)cc1)C(=O)O (stereo not drawn) [H-Tyr-Ile-OH]    2.9
Nc1ncnc2c1ncn2C1CC(O)C(CO)O1 (configuration not stated)    0.8
CC12CCC(=O)C=C1CCC1C2C(O)CC2(C)C1CCC2(O)C(=O)CO (configuration not stated) [hydrocortisone, cortisol]    6.56

[P] O=C(O)CCCCC(=O)O [Adipic acid]
[Q] O=C(O)CCCC(=O)O [Glutaric acid]
[R] Cn1c(=O)c2c(ncn2C)n(C)c1=O [Caffeine]
Request: Parameters: sort_field (LC retention time), sort_dir (desc). Sort the labels as requested; that list is your answer.
Result: R, P, Q
(R: 3.46 min, P: 2.33 min, Q: 1.14 min)

[P] CC(C)CC(NC(=O)C(N)Cc1ccc(O)cc1)C(=O)O (stereo not drawn) [H-Tyr-Leu-OH]
[Q] CS(=O)CCCCCCCCN=C=S (stereo not drawn) [8-MeSO-Octyl-NCS]
Request: For the pair P and Q , which member has the lower LC retention time number? Write down the label attached to your selection.
Result: P
(P: 3.2 min, Q: 8.1 min)

* * *

# experiment-description: RP, Waters ACQUITY UPLC HSS T3, 150 × 2.1 mm, 1.8 µm; A: water + 0.1% formic acid; B: acetonitrile + 0.1% formic acid; gradient (min/%B) 0/5 1/5 16/95 18/95
# test-parameters: stereoisomer not certain
assay-metric: LC retention time (min)

NCCS(=O)(=O)O    0.446

[P] O=C(O)CCCCC(=O)O
[Q] CCCCCCCCCCCCCCCC(=O)OCC(O)COP(=O)([O-])OCC[N+](C)(C)C (centres undefined)
Request: In terms of reported LC retention time, does P or Q have the smaller number? Answer by stating the label of the chosen item.
Result: P

[1] CCC(C)C(NC(=O)C(N)Cc1ccc(O)cc1)C(=O)O (centres undefined)
[2] O=C(O)CCCC(=O)O
Request: Lab log: flag the item ( 1 or 2 ) with the smaller LC retention time figure. Returns: label corresponding to the selected item.
Result: 2

[P] O=C(O)C1Cc2c([nH]c3ccccc23)CN1 (centres undefined)
[Q] Nc1ncnc2nc[nH]c12
Request: Out of P and Q , name the one with the higher LC retention time. // respond with label for picked entry
Result: P

[1] COc1cc(C=CCO)cc(OC)c1OC1OC(CO)C(O)C(O)C1O (centres undefined)
[2] CC12CCC(=O)C=C1CCC1C2C(=O)CC2(C)C1CCC2(O)C(=O)CO (centres undefined)
Request: Between the entries labelled 1 and 2 , which has a larger LC retention time value on record? Reply briefly: the label of your chosen item.
Result: 2
(2: 6.61 min, 1: 3.2 min)

* * *

# experiment-description: RP, Waters ACQUITY UPLC HSS T3, 150 × 2.1 mm, 1.8 µm; A: water + 0.1% formic acid; B: acetonitrile + 0.1% formic acid; gradient (min/%B) 0/5 1/5 16/95 18/95
# test-parameters: stereoisomer not certain
assay-metric: LC retention time (min)

Here's what some known entries look like.
O=c1[nH]cnc2c1ncn2C1OC(CO)C(O)C1O (configuration not stated)    0.839
CS(=O)CCCCCCCCN=C=S (configuration not stated)    8.1
COC1C(O)C(CO)OC1n1cnc2c(N)ncnc21 (configuration not stated)    1.1
Cn1cnc(CC(N)C(=O)O)c1 (configuration not stated)    0.407

[a] NCC(=O)NC(Cc1ccccc1)C(=O)O (configuration not stated)
[b] CSCCC(N)C(=O)O (configuration not stated)
[c] CC(CCC(=O)O)C1CCC2C3C(O)CC4CC(O)CCC4(C)C3CCC12C (configuration not stated)
[d] Cc1cn(C2CC(O)C(CO)O2)c(=O)[nH]c1=O (configuration not stated)
Request: Put the compounds in ascending order of LC retention time. Respond with the label ranking, as requested.
Result: b, d, a, c
(b: 0.643 min, d: 1.6 min, a: 2.3 min, c: 10.5 min)

[P] Nc1ncnc2c1ncn2C1CC(O)C(CO)O1 (configuration not stated)
[Q] CC(CCC(=O)NCC(=O)O)C1CCC2C3C(O)CC4CC(O)CCC4(C)C3CC(O)C12C (configuration not stated)
Request: Which value of LC retention time is numerically greater: that of P or that of Q ? Give the chosen item's label as your response.
Result: Q

[P] CC(C)CC(N)C(=O)O (configuration not stated)
[Q] CC(CCC(=O)O)C1CCC2C3C(O)CC4CC(O)CCC4(C)C3CC(O)C12C (configuration not stated)
[R] O=C(O)C(O)Cc1ccccc1 (configuration not stated)
Request: Parameters: sort_field (LC retention time), sort_dir (desc). Give me the labels in the order the question wants.
Result: Q, R, P
(Q: 8.94 min, R: 4.37 min, P: 0.795 min)

[A] O=C1CCC(C(=O)O)N1 (configuration not stated)
[B] CC(C)CC(NC(=O)C(N)Cc1ccc(O)cc1)C(=O)O (configuration not stated)
Request: Would you mind telling me which has the lower recorded LC retention time between A and B ? Respond with the label that goes with your answer.
Result: A
(A: 0.687 min, B: 3.2 min)

* * *

# experiment-description: RP, Waters ACQUITY UPLC HSS T3, 100 × 1 mm, 1.8 µm; A: water + 0.1% formic acid, pH 3; B: acetonitrile + 0.1% formic acid, pH 3; gradient (min/%B) 0/5 1/5 16/95 18/95 20/5
# test-parameters: stereoisomer not certain
assay-metric: LC retention time (min)

Use the examples below as a reference point.
NCC(=O)NC(Cc1ccccc1)C(=O)O (stereo not drawn) [H-Gly-Phe-OH]    2.3
O=C(O)CNC(=O)c1ccccc1 [Hippuric acid]    3.39
COc1cc2ccc(=O)oc2cc1O [Scopoletin]    4.5
COc1cc(CC2COC(c3ccc(O)c(OC)c3)C2CO)ccc1O (centres undefined) [Lariciresinol]    5.6

[I] Cc1cc2nc3c(=O)[nH]c(=O)nc-3n(CC(O)C(O)C(O)CO)c2cc1C (centres undefined) [Riboflavin]
[II] O=c1[nH]c(=O)c2[nH]c(=O)[nH]c2[nH]1 [Uric acid]
[III] CC(CCC(=O)NCC(=O)O)C1CCC2C3C(O)CC4CC(O)CCC4(C)C3CC(O)C12C (centres undefined) [Glycocholic acid]
[IV] CCCCCCCCC=CCCCCCCCC(=O)OCC(O)COP(=O)([O-])OCC[N+](C)(C)C (centres undefined) [lysoPC(18:1(9Z)/0:0)]
[V] CC(C)CC(NC(=O)C(N)C(C)C)C(=O)O (stereo not drawn) [H-Val-Leu-OH]
Request: rank_up(items): orders items by reported LC retention time in ascending numerical order. Labels, ranked as asked.
Result: II, V, I, III, IV

[a] O=C(O)C1Cc2c([nH]c3ccccc23)CN1 (centres undefined) [3-Carboxy-1,2,3,4-tetrahydro-2-carboline]
[b] O=C(O)C1CCCN1 (centres undefined) [Proline]
Request: So which one has the bigger LC retention time here, a or b ? Pick one; state its label.
Result: a
(a: 3.1 min, b: 0.482 min)

[A] O=C(O)C(O)Cc1ccccc1 (centres undefined) [phenyllactic acid]
[B] CC(C)CC(N)C(=O)O (centres undefined) [Leucine]
[C] CCCCCCCCCCCCCCCC(=O)OCC(O)COP(=O)([O-])OCC[N+](C)(C)C (centres undefined) [lysoPC(16:0/0:0)]
[D] Cn1cnc(C[C@H](N)C(=O)O)c1 [1-Methyl-L-Histidine]
Request: Order the records, beginning with the lowest LC retention time and ending with the highest. Show the ranking through the labels, in the order asked for.
Result: D, B, A, C
(D: 0.407 min, B: 0.795 min, A: 4.37 min, C: 11.6 min)

* * *

# experiment-description: RP, Waters ACQUITY UPLC HSS T3, 150 × 2.1 mm, 1.8 µm; A: water + 0.1% formic acid; B: acetonitrile + 0.1% formic acid; gradient (min/%B) 0/5 1/5 16/95 18/95
# test-parameters: stereoisomer not certain
assay-metric: LC retention time (min)

COc1cc(C=CCO)ccc1OC1OC(CO)C(O)C(O)C1O (stereo not given)    3
O=c1ccc2cc(OC3OC(CO)C(O)C(O)C3O)c(O)cc2o1 (stereo not given)    2.9
CCC(C)C(N)C(=O)NC(CC(C)C)C(=O)O (stereo not given)    3.4
COc1cc2ccc(=O)oc2cc1OC1OC(CO)C(O)C(O)C1O (stereo not given)    3.3
COc1cccc2[nH]cc(CN)c12    3.2
